protocol notes: reduction of polyQ htt aggregates in cells – imaging, exon1htt(103Q)mCFP cells, high-content imaging, primary screen (AID 483);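 note: compound exposure lasted 3 days before fixation; percent of the per-plate median nuclei count of sample wells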
test context: exon1htt(103Q)mCFP cell line, aggregate imaging, at 2 µM; measured here: cell count, toxicity
Measured nuclei count of individual entries
Give a bare numeral; the unit % is implied.

Below: 8 compounds and their reported nuclei count.
- Cc1ccc(NC(=O)C2CCCN2S(=O)(=O)c2cccc3cccnc23)cc1F (stereo unspecified): 71.6
- O=C(Nn1cnnc1)c1cc2c(s1)CCCC2: 108
- Cc1nc2ncnn2c(N2CCC(C(=O)NC3CCCC3)CC2)c1Cc1ccccc1: 116
- CCOC(=O)N1CCN(c2cc(=O)n(-c3cccc(Br)c3)c(=O)[nH]2)CC1: 55.8
- COc1ccc(CN(C2CCCC2)S(=O)(=O)c2ccc(-n3cnnn3)cc2)cc1OC: 115
- CC(=O)c1sc(NC(=O)C2COc3ccccc3O2)nc1C (stereo unspecified): 87.8
- C/C=C(\C)c1nnc(NC(=O)C(C)C)s1: 98.7
- O=C1CCCC2=C1C(c1cccs1)n1nc(SCc3ccccc3F)nc1N2 (stereo unspecified): 109

nuclei count for CCSCCNC(=O)c1cc(-n2cnnc2)ccc1Cl ?
97.1

Same thing, different compound: Cc1cccc2sc(NC(=O)Cn3cccc3)nc12
59.1

Same thing, different compound: CC1CCc2nn(CC(=O)N3CCN(C(=O)c4ccco4)CC3)cc2C1 (stereo unspecified)
112

----------
protocol notes: endothelial E-selectin expression blockers – imaging, HUVEC, immunofluorescence, MLSMR starter and 10KST1 sets, primary screen (AID 487);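 note: 100% = median nuclei count of all wells on the same plate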
test context: HUVEC TNFalpha-induced E-selectin immunofluorescence imaging, at 2 µM; measured here: cell number, toxicity
measurement kind: nuclei count (%)
Give a bare numeral; the unit % is implied.

nuclei count for O=C1c2ccccc2C(Nc2ccc3c(c2)OCCO3)N1Cc1ccc2c(c1)OCO2 (stereo unspecified) ?
106

Same thing, different molecule: CCOC(=O)C1CCN(C(c2cc3cc(C)cc(C)c3[nH]c2=O)c2nnnn2C2CCCCC2)CC1 (stereo unspecified)
159

Same thing, different molecule: CC(=O)c1coc2ccc(OCC(=O)O)cc12
110

Same thing, different molecule: Cc1ccc2cc(CN(CCN3CCCC3)C(=O)Nc3ccc(F)cc3)c(=O)[nH]c2c1C
111

Same thing, different molecule: O=C(Nc1nnc(COc2ccc(F)cc2)s1)c1cccs1
104

Same thing, different molecule: CC(NC(=O)c1cn(C)c2ccc(S(=O)(=O)N3CCCC3)cc2c1=O)c1ccc2c(c1)OCCO2 (stereo unspecified)
103

Same thing, different molecule: Cc1cc(C)c(NC(=O)Cn2cc3c(n2)CCCC3)c(C)c1
110

Same thing, different molecule: COc1ccc(-c2cc(O)cc(O)c2)cc1
98.8

Same thing, different molecule: C=CCn1c(=O)n(CCOC)c(=O)c2sc3ccccc3c21
102

Same thing, different molecule: Cc1cc(=O)oc2cc(OCC#N)ccc12
128

Same thing, different molecule: CCCC(c1nnnn1Cc1ccc(OC)cc1)N1CCN(c2ccccc2OC)CC1 (stereo unspecified)
82.7

----------
protocol notes: inhibitors of TNFa-induced NFkB p65 translocation, primary screen, imaging, HUVEC, MLSMR starter and 10KST1 sets (AID 438);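 note: compound added about 3h40 before a 20 min TNFalpha stimulation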
test context: HUVEC TNFa-induced p65 nuclear translocation; measured here: nuclei count (cytotoxicity indicator), at 2.08 µM
Measured cell count of individual entries
Give the figure by itself; no unit, no explanation.

- CCN(CC)S(=O)(=O)c1ccc2c(c1)nc(SCC(=O)NC1CC1)n2-c1ccccc1OC: 531
- CC(C)C[C@H](NC(=O)Nc1cccc(C(F)(F)F)c1)C(=O)O: 393
- CCOc1ccc(CN2C(=O)c3ccccc3C2C(=O)NCc2cccnc2)cc1 (stereo not given): 500
- COC(=O)c1ccccc1NC(=O)C1CCN(S(=O)(=O)c2cc(C)ccc2OC)CC1: 607
- COc1ccc(-n2c(Cc3cccn3C)nnc2SCC(=O)NCC2CCCO2)cc1 (stereo not given): 846

cell count for COC(=O)CS(=O)(=O)c1nnc([C@H](Cc2ccccc2)NC(=O)OC(C)(C)C)o1 ?
493

Same thing, different compound: Cn1c(=O)[nH]c(=O)c2[nH]c(NCCCN3CCOCC3)nc21
572

Same thing, different compound: CCOc1cc(-c2nc(-c3ccccc3OC)no2)cc(OCC)c1OCC
575

Same thing, different compound: Cc1ccc(C2c3sc(=O)[nH]c3SC3C(=O)NC(=O)C32)cc1 (stereo not given)
401

Same thing, different compound: CCN(C(=O)COC(=O)c1cc(C)n(-c2ccc(F)cc2)c1C)C1CCS(=O)(=O)C1 (stereo not given)
496

Entry source: PubChem BioAssay
